# experimental.target: UniProt P32245
# assay.info: Displacement of [125I]-NDP-alpha-MSH from human MC4R expressed in HEK293 cells after 40 mins by gamma counting method
pIC50: −log10 of the molar value. Bridge positions count the residues as written; N and C are the ends. Square brackets hold non-standard residues; d marks the D form. Peptide text beside a SMILES is read from it. Ac4c = NC1(C(=O)O)CCC1; Aib = CC(C)(N)C(=O)O
Attribute: pIC50
measurement.name: pIC50

compound	measurement.name	inequality.operator	measured.value
CC1(C)NC(=O)C[C@@H](C(N)=O)NC(=O)[C@H](Cc2c[nH]c3ccccc23)NC(=O)[C@H](CCCNC(=N)N)NC(=O)[C@@H](Cc2ccccc2)NC(=O)[C@H](Cc2c[nH]cn2)NC1=O ([Aib]H[dF]RWD-NH2; lactam N-6)	pIC50	=	8.28
N=C(N)NCCC[C@@H]1NC(=O)[C@@H](Cc2ccc3ccccc3c2)NC(=O)[C@H](Cc2c[nH]cn2)NC(=O)C2(CCC2)NC(=O)C[C@@H](C(N)=O)NC(=O)[C@H](Cc2c[nH]c3ccccc23)NC1=O	pIC50	=	6.49
N=C(N)NCCC[C@@H]1NC(=O)[C@@H](Cc2ccccc2)NC(=O)[C@H](Cc2c[nH]cn2)NC(=O)C2(CCC2)NC(=O)C[C@@H](C(N)=O)NC(=O)[C@H](Cc2c[nH]c3ccccc23)NC1=O	pIC50	<	6.00
N=C(N)NCCC[C@@H]1NC(=O)[C@@H](Cc2ccccc2)NC(=O)[C@H](Cc2c[nH]cn2)NC(=O)C2(CCC2)NC(=O)CC[C@@H](C(N)=O)NC(=O)[C@H](Cc2c[nH]c3ccccc23)NC1=O ([Ac4c]H[dF]RWE-NH2; lactam N-6)	pIC50	<	6.00

* * *

# experimental.target: UniProt:P33032
# Sequence (P33032 whole entry): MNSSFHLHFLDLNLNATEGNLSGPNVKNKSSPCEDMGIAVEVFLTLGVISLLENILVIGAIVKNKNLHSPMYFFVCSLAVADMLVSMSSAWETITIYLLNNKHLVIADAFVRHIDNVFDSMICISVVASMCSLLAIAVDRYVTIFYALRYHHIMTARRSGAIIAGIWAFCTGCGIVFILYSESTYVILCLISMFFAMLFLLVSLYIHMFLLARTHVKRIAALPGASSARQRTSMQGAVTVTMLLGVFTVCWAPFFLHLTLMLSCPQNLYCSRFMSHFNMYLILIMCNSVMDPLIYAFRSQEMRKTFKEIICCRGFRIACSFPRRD
# assay.info: Agonist activity at human MC5R expressed in HEK293 cells assessed as induction of intracellular cAMP accumulation after 3 mins
# Assay type: functional, cell-based
# applied.conditions: read-out: EC50
Bridge positions count the residues as written; N and C are the ends. Square brackets hold non-standard residues; d marks the D form. Peptide text beside a SMILES is read from it. d2Nal = N[C@H](Cc1ccc2ccccc2c1)C(=O)O; Ac4c = NC1(C(=O)O)CCC1; Aib = CC(C)(N)C(=O)O
measurement.name: EC50 (nM)

molecule	measured.value
N=C(N)NCCC[C@@H]1NC(=O)[C@@H](Cc2ccc3ccccc3c2)NC(=O)[C@H](Cc2c[nH]cn2)NC(=O)C2(CCCC2)NC(=O)C[C@@H](C(N)=O)NC(=O)[C@H](Cc2c[nH]c3ccccc23)NC1=O	96
CC1(C)NC(=O)C[C@@H](C(N)=O)NC(=O)[C@H](Cc2c[nH]c3ccccc23)NC(=O)[C@H](CCCNC(=N)N)NC(=O)[C@@H](Cc2ccccc2)NC(=O)[C@H](Cc2c[nH]cn2)NC1=O ([Aib]H[dF]RWD-NH2; lactam N-6)	140
N=C(N)NCCC[C@@H]1NC(=O)[C@@H](Cc2ccccc2)NC(=O)[C@H](Cc2c[nH]cn2)NC(=O)C2(CCC2)NC(=O)CC[C@@H](C(N)=O)NC(=O)[C@H](Cc2c[nH]c3ccccc23)NC1=O ([Ac4c]H[dF]RWE-NH2; lactam N-6)	2
CC1(C)NC(=O)C[C@@H](C(N)=O)NC(=O)[C@H](Cc2c[nH]c3ccccc23)NC(=O)[C@H](CCCNC(=N)N)NC(=O)[C@@H](Cc2ccc3ccccc3c2)NC(=O)[C@H](Cc2c[nH]cn2)NC1=O ([Aib]H[d2Nal]RWD-NH2; lactam N-6)	18

* * *

# experimental.target: Melanocortin receptor 4 (Homo sapiens)
# Sequence (P32245 whole entry): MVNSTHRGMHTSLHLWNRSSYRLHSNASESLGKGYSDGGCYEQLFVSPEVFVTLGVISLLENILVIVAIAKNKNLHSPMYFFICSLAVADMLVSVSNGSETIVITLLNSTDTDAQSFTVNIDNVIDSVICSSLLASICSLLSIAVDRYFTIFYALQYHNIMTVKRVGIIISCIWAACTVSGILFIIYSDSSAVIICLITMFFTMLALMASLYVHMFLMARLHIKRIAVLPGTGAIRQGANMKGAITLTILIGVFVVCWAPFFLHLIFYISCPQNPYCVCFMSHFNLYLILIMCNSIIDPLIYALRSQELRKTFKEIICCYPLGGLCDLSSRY
# assay.info: Agonist activity at human MC4R expressed in HEK293 cells assessed as induction of intracellular cAMP accumulation after 3 mins
# Format: functional, cell-based
# applied.conditions: read-out: EC50
Bridge positions count the residues as written; N and C are the ends. Square brackets hold non-standard residues; d marks the D form. Peptide text beside a SMILES is read from it. d2Nal = N[C@H](Cc1ccc2ccccc2c1)C(=O)O; Ac5c = NC1(C(=O)O)CCCC1; Ac4c = NC1(C(=O)O)CCC1
Attribute: EC50
measurement.name: EC50 (nM)

compound	experimental.target	measurement.name	measured.value
N=C(N)NCCC[C@@H]1NC(=O)[C@@H](Cc2ccc3ccccc3c2)NC(=O)[C@H](Cc2c[nH]cn2)NC(=O)C2(CCCC2)NC(=O)CC[C@@H](C(N)=O)NC(=O)[C@H](Cc2c[nH]c3ccccc23)NC1=O ([Ac5c]H[d2Nal]RWE-NH2; lactam N-6)	Melanocortin receptor 4 (Homo sapiens)	EC50	130
N=C(N)NCCC[C@@H]1NC(=O)[C@@H](Cc2ccccc2)NC(=O)[C@H](Cc2c[nH]cn2)NC(=O)C2(CCC2)NC(=O)CC[C@@H](C(N)=O)NC(=O)[C@H](Cc2c[nH]c3ccccc23)NC1=O ([Ac4c]H[dF]RWE-NH2; lactam N-6)	Melanocortin receptor 4 (Homo sapiens)	EC50	150
N=C(N)NCCC[C@@H]1NC(=O)[C@@H](Cc2ccc3ccccc3c2)NC(=O)[C@H](Cc2c[nH]cn2)NC(=O)C2(CCCCC2)NC(=O)C[C@@H](C(N)=O)NC(=O)[C@H](Cc2c[nH]c3ccccc23)NC1=O	Melanocortin receptor 4 (Homo sapiens)	EC50	3.2
N=C(N)NCCC[C@@H]1NC(=O)[C@@H](Cc2ccccc2)NC(=O)[C@H](Cc2c[nH]cn2)NC(=O)C2(CCCC2)NC(=O)CC[C@@H](C(N)=O)NC(=O)[C@H](Cc2c[nH]c3ccccc23)NC1=O ([Ac5c]H[dF]RWE-NH2; lactam N-6)	Melanocortin receptor 4 (Homo sapiens)	EC50	1000

* * *

# experimental.target: Melanocortin receptor 4 (Homo sapiens)
# assay.info: Agonist activity at human MC4R expressed in HEK293 cells assessed as induction of intracellular cAMP accumulation at 10 uM after 3 mins relative to MT-2
# Format: functional, cell-based
Bridge positions count the residues as written; N and C are the ends. Square brackets hold non-standard residues; d marks the D form. Peptide text beside a SMILES is read from it. d2Nal = N[C@H](Cc1ccc2ccccc2c1)C(=O)O; Ac5c = NC1(C(=O)O)CCCC1; Ac4c = NC1(C(=O)O)CCC1; Aib = CC(C)(N)C(=O)O

molecule	max activation [%]
CC1(C)NC(=O)C[C@@H](C(N)=O)NC(=O)[C@H](Cc2c[nH]c3ccccc23)NC(=O)[C@H](CCCNC(=N)N)NC(=O)[C@@H](Cc2ccc3ccccc3c2)NC(=O)[C@H](Cc2c[nH]cn2)NC1=O ([Aib]H[d2Nal]RWD-NH2; lactam N-6)	100
N=C(N)NCCC[C@@H]1NC(=O)[C@@H](Cc2ccc3ccccc3c2)NC(=O)[C@H](Cc2c[nH]cn2)NC(=O)C2(CCCC2)NC(=O)CC[C@@H](C(N)=O)NC(=O)[C@H](Cc2c[nH]c3ccccc23)NC1=O ([Ac5c]H[d2Nal]RWE-NH2; lactam N-6)	74
N=C(N)NCCC[C@@H]1NC(=O)[C@@H](Cc2ccccc2)NC(=O)[C@H](Cc2c[nH]cn2)NC(=O)C2(CCCCC2)NC(=O)CC[C@@H](C(N)=O)NC(=O)[C@H](Cc2c[nH]c3ccccc23)NC1=O	100
N=C(N)NCCC[C@@H]1NC(=O)[C@@H](Cc2ccc3ccccc3c2)NC(=O)[C@H](Cc2c[nH]cn2)NC(=O)C2(CCCCC2)NC(=O)C[C@@H](C(N)=O)NC(=O)[C@H](Cc2c[nH]c3ccccc23)NC1=O	67
N=C(N)NCCC[C@@H]1NC(=O)[C@@H](Cc2ccccc2)NC(=O)[C@H](Cc2c[nH]cn2)NC(=O)C2(CCCC2)NC(=O)CC[C@@H](C(N)=O)NC(=O)[C@H](Cc2c[nH]c3ccccc23)NC1=O ([Ac5c]H[dF]RWE-NH2; lactam N-6)	100
N=C(N)NCCC[C@@H]1NC(=O)[C@@H](Cc2ccc3ccccc3c2)NC(=O)[C@H](Cc2c[nH]cn2)NC(=O)C2(CCCC2)NC(=O)C[C@@H](C(N)=O)NC(=O)[C@H](Cc2c[nH]c3ccccc23)NC1=O	67
CC1(C)NC(=O)C[C@@H](C(N)=O)NC(=O)[C@H](Cc2c[nH]c3ccccc23)NC(=O)[C@H](CCCNC(=N)N)NC(=O)[C@@H](Cc2ccccc2)NC(=O)[C@H](Cc2c[nH]cn2)NC1=O ([Aib]H[dF]RWD-NH2; lactam N-6)	100
N=C(N)NCCC[C@@H]1NC(=O)[C@@H](Cc2ccccc2)NC(=O)[C@H](Cc2c[nH]cn2)NC(=O)C2(CCC2)NC(=O)CC[C@@H](C(N)=O)NC(=O)[C@H](Cc2c[nH]c3ccccc23)NC1=O ([Ac4c]H[dF]RWE-NH2; lactam N-6)	75
N=C(N)NCCC[C@@H]1NC(=O)[C@@H](Cc2ccc3ccccc3c2)NC(=O)[C@H](Cc2c[nH]cn2)NC(=O)C2(CCC2)NC(=O)C[C@@H](C(N)=O)NC(=O)[C@H](Cc2c[nH]c3ccccc23)NC1=O	70
N=C(N)NCCC[C@@H]1NC(=O)[C@@H](Cc2ccccc2)NC(=O)[C@H](Cc2c[nH]cn2)NC(=O)C2(CCC2)NC(=O)C[C@@H](C(N)=O)NC(=O)[C@H](Cc2c[nH]c3ccccc23)NC1=O	43

Origin of the recorded values: ChEMBL document CHEMBL4177763
